# Tested on: Enterococcus faecalis
# Protocol notes: Antibacterial activity against multidrug and vancomycin-resistant Enterococcus faecalis UW 2689 assessed as growth inhibition by broth microdilution method
# Format: functional
Measured MIC accompanies every entry in the list below.

See these solved cases before continuing.
Compound: CC[C@H](C)[C@H]1C(=O)O[C@H](C(C)C)C(=O)N(C)[C@@H](C(C)C)C(=O)O[C@H](C(C)C)C(=O)N(C)[C@@H](C(C)C)C(=O)O[C@H](C(C)C)C(=O)N1C
Result: 8 µg/mL
//
Compound: CN(C)[C@@H]1C(O)=C(C(N)=O)C(=O)[C@@]2(O)C(O)=C3C(=O)c4c(O)cccc4[C@@](C)(O)[C@H]3C[C@@H]12
Result: 64 µg/mL

Input line: # get_value(readout='MIC', item= `CC(C)[C@H]1C(=O)O[C@H](C(C)C)C(=O)N(C)[C@@H](C(C)C)C(=O)O[C@H](C(C)C)C(=O)N(C)[C@@H](C(C)C)C(=O)O[C@H](C(C)C)C(=O)N1C` )
Output line: > 64 µg/mL

Input line: # get_value(readout='MIC', item= C=C1NC(=O)C(C)C(CCC(C)C(=O)/C=C/C(C)=C/CCC(C)CCCCCC)OC(=O)C(CCC(N)=O)NC(=O)C(C)CNC1=O (stereo not given) )
Output line: > 64 µg/mL

Input line: # get_value(readout='MIC', item= `COC(=O)c1oc(=O)c2c(O)c3c(=O)cc(C)oc3cc2c1O` )
Output line: 8 µg/mL

Input line: # get_value(readout='MIC', item= `CC(=O)C[C@@H](O)Cc1cc2cc(O)cc(O)c2c(=O)o1` )
Output line: > 64 µg/mL

Input line: # get_value(readout='MIC', item= `Cc1cc(=O)cc(Cc2cc(O)cc(O)c2)o1` )
Output line: > 64 µg/mL

Input line: # get_value(readout='MIC', item= `O=C(O)CNc1ccccc1C(=O)O` )
Output line: > 64 µg/mL

Input line: # get_value(readout='MIC', item= `O=C(O)c1cn(C2CC2)c2cc(N3CCNCC3)c(F)cc2c1=O` )
Output line: 16 µg/mL

Input line: # get_value(readout='MIC', item= `C[C@@H](O)C[C@@H](O)Cc1cc2cc(O)cc(O)c2c(=O)o1` )
Output line: > 64 µg/mL

* * *

# Test system: Escherichia coli
# Protocol notes: Antibacterial activity against Escherichia coli ATCC 25922 assessed as growth inhibition by broth microdilution method
# Assay type: functional
Measured MIC accompanies every entry in the list below.

Chemical structure: CC[C@H](C)[C@H]1C(=O)O[C@H](C(C)C)C(=O)N(C)[C@@H](C(C)C)C(=O)O[C@H](C(C)C)C(=O)N(C)[C@@H](C(C)C)C(=O)O[C@H](C(C)C)C(=O)N1C
Result: > 64 µg/mL
//
Chemical structure: CC(C)[C@H]1C(=O)O[C@H](C(C)C)C(=O)N(C)[C@@H](C(C)C)C(=O)O[C@H](C(C)C)C(=O)N(C)[C@@H](C(C)C)C(=O)O[C@H](C(C)C)C(=O)N1C
Result: > 64 µg/mL

# context switch: different molecule, same MIC
Input line: # get_value(readout='MIC', item= `CC(=O)C[C@@H](O)Cc1cc2cc(O)cc(O)c2c(=O)o1` )
Output line: > 64 µg/mL
